Provide the reported Ki of each item.
- assayTarget: Nociceptin receptor (Homo sapiens, UniProt P41146)
- Sequence (P41146 whole entry): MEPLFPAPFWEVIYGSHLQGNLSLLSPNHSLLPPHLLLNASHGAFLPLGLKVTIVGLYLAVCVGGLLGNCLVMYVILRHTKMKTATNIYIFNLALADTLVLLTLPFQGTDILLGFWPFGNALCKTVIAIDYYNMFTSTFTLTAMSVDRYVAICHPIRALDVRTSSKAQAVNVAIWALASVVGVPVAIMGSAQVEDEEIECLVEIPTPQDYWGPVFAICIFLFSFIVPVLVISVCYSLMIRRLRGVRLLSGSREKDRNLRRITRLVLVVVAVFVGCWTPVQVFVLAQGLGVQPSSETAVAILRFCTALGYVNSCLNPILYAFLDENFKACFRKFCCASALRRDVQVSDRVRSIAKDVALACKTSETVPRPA
- testProtocol: Receptor binding affinity for recombinant human N/OFQ peptide receptor (NOP) expressed in chinese hamster ovary cells
Numbered stars: 1 amine (or outer) side, 2 acyl side, 3 side chain; on linkers, the order of the positions; unused ones are H or OH. Square brackets hold non-standard residues; d marks the D form. Peptide text beside a SMILES is read from it. X1 = N[C@@H](Cc1ccccc1)CN(CC(=O)[*:2])[*:1]; Phe(4-F) = N[C@@H](Cc1ccc(F)cc1)C(=O)O
Answers are plain numbers, in nM.

Some compounds with known Ki results, for comparison:
compound="C[C@H](NC(=O)CNC(=O)[C@@H](NC(=O)[C@H](Cc1ccc(F)cc1)NC(=O)CNC(=O)CNC[C@@H](N)Cc1ccccc1)[C@@H](C)O)C(=O)N[C@@H](CCCN=C(N)N)C(=O)N[C@@H](CCCCN)C(=O)N[C@@H](CO)C(=O)N[C@@H](C)C(=O)N[C@@H](CCCN=C(N)N)C(=O)N[C@@H](CCCCN)C(=O)N[C@@H](CCCN=C(N)N)C(=O)N[C@@H](CCCCN)C(=O)N[C@@H](CC(N)=O)C(=O)N[C@@H](CCC(N)=O)C(N)=O (H-[X1]G[Phe(4-F)]TGARKSARKRKNQ-NH2)" quantitykind=Ki assayresult=0.02
compound="C[C@H](NC(=O)CNC(=O)[C@@H](NC(=O)[C@H](Cc1ccccc1)NC(=O)CNC(=O)CNC[C@@H](N)Cc1ccccc1)[C@@H](C)O)C(=O)N[C@@H](CCCN=C(N)N)C(=O)N[C@@H](CCCCN)C(=O)N[C@@H](CO)C(=O)N[C@@H](C)C(=O)N[C@@H](CCCN=C(N)N)C(=O)N[C@@H](CCCCN)C(=O)N[C@@H](CCCN=C(N)N)C(=O)N[C@@H](CCCCN)C(=O)N[C@@H](CC(N)=O)C(=O)N[C@@H](CCC(N)=O)C(N)=O (H-[X1]GFTGARKSARKRKNQ-NH2)" quantitykind=Ki assayresult=0.0316

Batch of 4 compounds: report Ki for each.
1. CC(C)C[C@H](NC(=O)[C@H](CCCCN)NC(=O)[C@H](CCCN=C(N)N)NC(=O)[C@H](C)NC(=O)[C@H](CO)NC(=O)[C@H](CCCCN)NC(=O)[C@H](CCCN=C(N)N)NC(=O)[C@H](C)NC(=O)CNC(=O)[C@@H](NC(=O)[C@H](Cc1ccc(F)cc1)NC(=O)CNC(=O)CNC[C@@H](N)Cc1ccccc1)[C@@H](C)O)C(=O)N[C@@H](C)C(=O)N[C@@H](CC(N)=O)C(=O)N[C@@H](CCC(N)=O)C(N)=O (H-[X1]G[Phe(4-F)]TGARKSARKLANQ-NH2)
2. C[C@H](NC(=O)CNC(=O)[C@@H](NC(=O)[C@H](Cc1ccc(F)cc1)NC(=O)CNC(=O)CNC(=O)CNCc1ccccc1)[C@@H](C)O)C(=O)N[C@@H](CCCN=C(N)N)C(=O)N[C@@H](CCCCN)C(=O)N[C@@H](CO)C(=O)N[C@@H](C)C(=O)N[C@@H](CCCN=C(N)N)C(=O)N[C@@H](CCCCN)C(=O)N[C@@H](CCCN=C(N)N)C(=O)N[C@@H](CCCCN)C(=O)N[C@@H](CC(N)=O)C(=O)N[C@@H](CCC(N)=O)C(N)=O
3. C[C@H](NC(=O)CNC(=O)[C@@H](NC(=O)[C@H](Cc1ccc(F)cc1)NC(=O)CNC(=O)CNC(=O)[C@@H](N)Cc1ccccc1)[C@@H](C)O)C(=O)N[C@@H](CCCNC(=N)N)C(=O)N[C@@H](CCCCN)C(=O)N[C@@H](CO)C(=O)N[C@@H](C)C(=O)N[C@@H](CCCNC(=N)N)C(=O)N[C@@H](CCCCN)C(=O)N[C@@H](CCCNC(=N)N)C(=O)N[C@@H](CCCCN)C(=O)N[C@@H](CC(N)=O)C(=O)N[C@@H](CCC(N)=O)C(N)=O
4. C[C@H](NC(=O)CNC(=O)[C@@H](NC(=O)[C@H](Cc1ccccc1)NC(=O)CNC(=O)CNC(=O)CNCc1ccccc1)[C@@H](C)O)C(=O)N[C@@H](CCCN=C(N)N)C(=O)N[C@@H](CCCCN)C(=O)N[C@@H](CO)C(=O)N[C@@H](C)C(=O)N[C@@H](CCCN=C(N)N)C(=O)N[C@@H](CCCCN)C(=O)N[C@@H](CCCN=C(N)N)C(=O)N[C@@H](CCCCN)C(=O)N[C@@H](CC(N)=O)C(=O)N[C@@H](CCC(N)=O)C(N)=O

stdout:
1: 0.0479; 2: 0.0251; 3: 0.00479; 4: 0.129
